measured_on: P2RY2 (Homo sapiens)
Construct: purchased Promega (in-house HiBiT-GPCR construct library, NanoBRET)
Sequence (P41231 whole entry): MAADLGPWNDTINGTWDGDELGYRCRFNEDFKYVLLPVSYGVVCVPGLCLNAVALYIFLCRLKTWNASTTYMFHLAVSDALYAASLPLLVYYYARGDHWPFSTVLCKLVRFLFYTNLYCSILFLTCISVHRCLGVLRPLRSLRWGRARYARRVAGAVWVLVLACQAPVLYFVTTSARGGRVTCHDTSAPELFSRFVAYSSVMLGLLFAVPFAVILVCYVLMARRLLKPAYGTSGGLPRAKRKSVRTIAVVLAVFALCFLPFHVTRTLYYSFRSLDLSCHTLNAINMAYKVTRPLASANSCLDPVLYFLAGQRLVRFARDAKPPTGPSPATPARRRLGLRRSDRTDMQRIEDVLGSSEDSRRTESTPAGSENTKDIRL
experimental_details: NanoBRET screen HiBiT-P2RY2 in HEK293
Format: binding
cond: P2RY2; tracer 0.1μM
property_measured: NanoBRET Fold Response
// keep it numeric: no unit symbol after the value

# input So what's the measured NanoBRET Fold Response for this one? CCCn1c(=O)c2[nH]c(-c3ccc(OCC(=O)NCCNC(=O)CCOCCNC(=O)c4ccc(CNC(=O)CCc5ccc6n5[B-](F)(F)[N+]5=C(c7ccc[nH]7)C=CC5=C6)cc4)cc3)nc2n(CCC)c1=O [XAC-3-NB590]
# output 0.96

# input // returns reported NanoBRET Fold Response for input Cc1nc2n(c(=O)c1CCN1CCC(c3noc4cc(F)ccc34)CC1)CCCC2OC(=O)NCCOCCOCCOCCOCCNC(=O)CCc1ccc2n1[B-](F)(F)[N+]1=C(c3ccc[nH]3)C=CC1=C2 (stereo not shown) [Risperidone-2-NB590]
# output 1.08

# input So what's the measured NanoBRET Fold Response for this one? O=C(CCc1ccc2n1[B-](F)(F)[N+]1=C(c3ccc[nH]3)C=CC1=C2)NCc1ccc(C(=O)NCCOCCC(=O)N[C@@H]2CC[C@@]3(O)[C@H]4Cc5ccc(O)c6c5[C@@]3(CCN4CC3CC3)[C@H]2O6)cc1 [Naltrexone-3-NB590]
# output 0.90

# input Suppose we examine the molecule O=C(CCc1ccc2n1[B-](F)(F)[N+]1=C(c3ccc[nH]3)C=CC1=C2)NCCOCCOCCNC(=O)OCCOCCN1CCN(C2=Nc3ccccc3Sc3ccccc32)CC1 [Quetiapine-a-2-NB590] ; what NanoBRET Fold Response value has been reported?
# output 1.07

# input Please report the recorded NanoBRET Fold Response for N#CN=C(NCCCOc1cccc(CN2CCCCC2)c1)NCCNC(=O)CCOCCOCCOCCOCCNC(=O)CCc1ccc2n1[B-](F)(F)[N+]1=C(c3ccc[nH]3)C=CC1=C2 [Aminopotentidine-2-NB590] .
# output 1.01

# input I'd like to know its NanoBRET Fold Response. The molecule in question is Cc1cc2c(s1)Nc1ccccc1N=C2N1CCN(CCCNC(=O)CCOCCOCCOCCOCCNC(=O)CCc2ccc3n2[B-](F)(F)[N+]2=C(c4ccc[nH]4)C=CC2=C3)CC1 [Olanzapine-a-2-NB590]
# output 0.95

# input Returns the measured NanoBRET Fold Response for the input molecule. Input: CC(C)N(CC[C@H](c1ccccc1)c1cc(CCNC(=O)c2ccc(CNC(=O)CCc3ccc4n3[B-](F)(F)[N+]3=C(c5ccc[nH]5)C=CC3=C4)cc2)ccc1O)C(C)C [Tolterodine-BZ-NB590]
# output 1.02
